I'd be grateful if you could share measured cell viability for these entries.
system: Vero E6; assay: cell viability relative to DMSO; higher = less toxic; conditions: 72 h; 100 nM
One number for each entry, in %.

[[record]]
compound = "CCn1c(=O)n(C2=C(CO)CN(CC3CCCCCCC3)CC2)c2ccccc21"
measured_number = 95.6

[[record]]
compound = "CC1CCc2c(N3CCC(O)CC3)c(F)cc3c(=O)c(C(=O)O)cn1c23 (centres undefined)"
measured_number = 97.9

[[record]]
compound = "COc1ccc(NS(=O)(=O)c2ccc(/N=N/c3ccc(O)c(C(=O)O)c3)cc2)nn1"
measured_number = 95.7


Count: 8. Required value per item: cell viability.
1. O=C(CN1CCN(Cc2ccc3c(c2)OCO3)CC1)N1c2ccccc2Sc2ccccc21
2. CC(=O)C1=C(O)C=C2Oc3c(C(C)=O)c(O)c(C)c(O)c3C2(C)C1=O (stereo not drawn) [usniacin-(+)]
3. O=[N+]([O-])/C=C/c1ccc2c(c1)OCO2
4. CC1(C)S[C@@H]2[C@H](NC(=O)[C@H](NC(=O)N3CCNC3=O)c3ccccc3)C(=O)N2[C@H]1C(=O)O
5. CCCCCCCCCCCCCCCCCCCCCCCCCCCCO
6. CC(C)C[C@H](NC(=O)[C@@H]1CCCN1)C(=O)NCC(N)=O [prolylleucylglycinamide]
7. c1ccc2c(c1)CCC[C@H]2Nc1nc2ccccc2[nH]1
8. C[C@H](N)Cn1ccc2cc(F)c(Cl)cc21

1: 98.4; 2: 100; 3: 99.9; 4: 96.9; 5: 96.7; 6: 102; 7: 95.6; 8: 100

Count: 2. Required value per item: cell viability.
1. Cc1cc(C)c(CNC(=O)c2cc(-c3ccc(N4CCN(C)CC4)nc3)cc3c2c(C)cn3C(C)C)c(=O)[nH]1
2. Clc1ccc(CCCOCCCN2CCCCC2)cc1

105
95.6
